Biological target: Neu5Ac(a2-8)Neu5Ac(a2-8)Neu5Ac(a2-8)Neu5Ac(a2-3)[GalNAc(b1-4)]Gal(b1-4)Glc
Assay: glycan array binding signal (z-score within array); higher = stronger binding
Conditions: glycan notation: IUPAC condensed, linker removed
About 410 targets per protein were measured; listed, in parts, are those with the strongest signals and a random draw of the rest.
assay.metric: glycan array binding signal (z-score)
Kindly provide the number alone.

**Query** Bench note: what glycan array binding signal (z-score) did LF82 (Escherichia coli) (protein) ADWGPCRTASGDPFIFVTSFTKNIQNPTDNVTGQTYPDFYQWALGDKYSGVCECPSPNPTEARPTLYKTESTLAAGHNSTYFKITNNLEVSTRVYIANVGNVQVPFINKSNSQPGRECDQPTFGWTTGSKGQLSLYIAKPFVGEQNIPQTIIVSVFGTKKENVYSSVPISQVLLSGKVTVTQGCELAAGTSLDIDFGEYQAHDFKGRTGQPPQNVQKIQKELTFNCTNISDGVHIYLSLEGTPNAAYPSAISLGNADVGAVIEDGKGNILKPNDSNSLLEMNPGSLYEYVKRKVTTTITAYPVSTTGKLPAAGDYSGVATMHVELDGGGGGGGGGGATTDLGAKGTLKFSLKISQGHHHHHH show?
**Result** 2.59
